assay: viability loss of HPDE-C7K cells – cell-based, fluorescence, HTS, primary screen (AID 431); conditions: HPDE-C7K KRASV12 cells, Alamar Blue viability, 48 h; at 10 µM;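 note: 0% = DMSO solvent wells and 100% = doxorubicin-treated wells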
The whole screen tested about 63,000 compounds, of which about 1,100 (1.7%) were called active.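 Rule for the calls: active = compounds whose percent cytotoxicity in the single-dose primary screen, scaled between solvent and toxic-drug controls, exceeds 50; inactive = the rest.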 The list comes from a sample in which actives are over-represented; it also holds close analogues and randomly drawn compounds. Results with a measured potency or affinity are listed apart.
The categories you may choose from are T (active), F (inactive)

Q: Kindly provide the recorded test outcome for the following compound: "Cn1nc(CC(=O)Nc2cccc3ncccc23)c2ccccc2c1=O"
Ans: F

Q: Kindly provide the recorded test outcome for the following compound: COc1ccc(-c2nc3c(c(=O)n(C)c(=O)n3C)n2CC2CC(c3ccccc3)=NO2)cc1OC (stereo not drawn)
Ans: T

Q: Kindly provide the recorded test outcome for the following compound: "O=C(Nc1nc2ccccc2n1CCN1CCCCC1)c1ccco1"
Ans: F

Q: Kindly provide the recorded test outcome for the following compound: "Cc1sc2ncnc(Sc3nnnn3-c3ccccc3)c2c1C"
Ans: T

Q: Kindly provide the recorded test outcome for the following compound: "O=C(CN1CCN(Cc2ccccc2Cl)C1=O)N1CCCCCC1"
Ans: F

Q: Kindly provide the recorded test outcome for the following compound: "Nc1cc(C(=O)N2CCCC2)cc(C(=O)N2CCCC2)c1"
Ans: F

Q: Kindly provide the recorded test outcome for the following compound: CC1Cn2c(nnc2-c2cccc(Cl)c2)S1 (stereo not drawn)
Ans: F

Q: Kindly provide the recorded test outcome for the following compound: "CN(C)c1nc(N)nc(CSc2nnnn2C)n1"
Ans: F

Q: Kindly provide the recorded test outcome for the following compound: "CCOC(=O)c1cccc(NC(=O)CSc2nnc(COc3ccccc3)n2CC)c1"
Ans: F

Q: Kindly provide the recorded test outcome for the following compound: "COc1ccc(CCNc2nc(-c3sc(N)nc3C)cs2)cc1OC"
Ans: F

Q: Kindly provide the recorded test outcome for the following compound: "O=C(Nc1cnn(Cc2ccccc2)c1)c1cc2nc(-c3ccco3)cc(C(F)(F)F)n2n1"
Ans: F

Q: Kindly provide the recorded test outcome for the following compound: "Cc1ccc(C(=O)Nc2nc3ccccc3n2CCN2CCCC2)cc1"
Ans: F

Q: Kindly provide the recorded test outcome for the following compound: "CS(=O)(=O)N1CCC(c2noc(-c3ccc(C(F)(F)F)cc3)n2)CC1"
Ans: F

Q: Kindly provide the recorded test outcome for the following compound: "COc1ccc(-c2ccc(-c3noc(-c4ccco4)n3)c(OC)n2)cc1"
Ans: F

Q: Kindly provide the recorded test outcome for the following compound: "O=C(NC1CCCCC1)n1c(=O)oc2ccccc21"
Ans: F

Q: Kindly provide the recorded test outcome for the following compound: "Cc1ccnc(NC(=O)CCC(=O)N(CC(=O)NC2CCCCC2)c2ccc3c(c2)OCO3)c1"
Ans: F

Q: Kindly provide the recorded test outcome for the following compound: "Cc1ccccc1Cn1ccc(NC(=O)c2cc3nc(-c4ccco4)cc(C(F)(F)F)n3n2)n1"
Ans: T

Q: Kindly provide the recorded test outcome for the following compound: "Cc1ccc(S(=O)(=O)N2CCN(S(=O)(=O)N3CCCCC3)CC2)c(C)c1"
Ans: F

Q: Kindly provide the recorded test outcome for the following compound: "CC(C)c1nc(SCc2ccccn2)c2c(=O)n(C)c(=O)n(C)c2n1"
Ans: F

Q: Kindly provide the recorded test outcome for the following compound: "COc1ccc(-c2cc(C(F)(F)F)n3nc(C(=O)Nc4cc(C)on4)cc3n2)cc1OC"
Ans: F

Q: Kindly provide the recorded test outcome for the following compound: "CN1CCN(S(=O)(=O)c2ccc(NC(=O)Nc3cccc(Cl)c3)cc2)CC1"
Ans: T

Q: Kindly provide the recorded test outcome for the following compound: "CC(=O)c1cc(F)c(N2CCCC2)cc1C"
Ans: F

Q: Kindly provide the recorded test outcome for the following compound: CCn1c2ccccc2c2nnc(SCC(=O)NC(CC(C)C)C(=O)OC)nc21 (stereo not drawn)
Ans: F

---

test: viability loss of HPDE-C7K cells – cell-based, fluorescence, HTS, primary screen (AID 431); conditions: HPDE-C7K KRASV12 cells, Alamar Blue viability, 48 h; at 10 µM;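 note: 0% = DMSO solvent wells and 100% = doxorubicin-treated wells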
The campaign covered roughly 63,000 compounds. About 1,100 (1.7%) were called active.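 The calls were made as follows: active = compounds whose percent cytotoxicity in the single-dose primary screen, scaled between solvent and toxic-drug controls, exceeds 50; inactive = the rest.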 This excerpt belongs to a sample that is enriched for actives. Results with a measured potency or affinity are listed apart.
The categories you may choose from are true for active, false for inactive

Q: Kindly provide the recorded test outcome for the following molecule: "c1ccc(-n2nnnc2SCCCSc2nc3ccccc3s2)cc1"
Ans: false

Q: Kindly provide the recorded test outcome for the following molecule: "Cc1nc2ccc3nc(NC(=O)c4ccc5c(c4)OCCO5)sc3c2s1"
Ans: false

Q: Kindly provide the recorded test outcome for the following molecule: "Cc1cc(NC(=O)NC(=O)c2cccc(OC(F)(F)C(F)F)c2)n[nH]1"
Ans: false

Q: Kindly provide the recorded test outcome for the following molecule: CCC1(C)Cc2c(sc3c2c(=O)n(C)c2nnc(SCc4ccccc4)n32)CO1 (stereo unspecified)
Ans: false

Q: Kindly provide the recorded test outcome for the following molecule: "COc1cccc2c1C(=O)c1c(O)c3c(c(O)c1C2=O)C[C@@](O)(C(C)=O)C[C@@H]3O[C@H]1C[C@H](N)[C@H](O)[C@H](C)O1"
Ans: true

Q: Kindly provide the recorded test outcome for the following molecule: "COc1cccc2c1C(=O)c1c(O)c3c(c(O)c1C2=O)C[C@@](O)(C(=O)CO)C[C@@H]3O[C@H]1C[C@H](N)[C@H](O)[C@H](C)O1"
Ans: true

---

experiment: viability loss of HPDE-C7K cells – cell-based, fluorescence, HTS, primary screen (AID 431); conditions: HPDE-C7K KRASV12 cells, Alamar Blue viability, 48 h; at 10 µM;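 note: 0% = DMSO solvent wells and 100% = doxorubicin-treated wells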
Screen size: about 63,000 compounds; about 1,100 (1.7%) were called active.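 The calls were made as follows: active = compounds whose percent cytotoxicity in the single-dose primary screen, scaled between solvent and toxic-drug controls, exceeds 50; inactive = the rest.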 For the sample, actives were picked, then their nearest neighbours and some compounds at random. Entries with a potency or affinity are not part of this list.
The categories you may choose from are active, inactive

Q: Kindly provide the recorded test outcome for the following compound: "Cc1ccc(Cl)cc1N1CCN(Cc2nc3c(c(=O)[nH]c(=O)n3C)n2Cc2ccccc2F)CC1"
Ans: active

Q: Kindly provide the recorded test outcome for the following compound: "Cc1cc(O)ccc1Nc1nc(-c2sc(N)nc2C)cs1"
Ans: inactive

Q: Kindly provide the recorded test outcome for the following compound: COc1ccc(C2CC(c3cc(Br)ccc3F)n3nnnc3N2)cc1 (stereo unspecified)
Ans: inactive

Q: Kindly provide the recorded test outcome for the following compound: "Cc1cccnc1Nc1nc(-c2ccc(O)cc2O)cs1"
Ans: active

Q: Kindly provide the recorded test outcome for the following compound: "O=C1C(C=NCCCn2ccnc2)=C(O)c2ccccc21"
Ans: inactive

Q: Kindly provide the recorded test outcome for the following compound: N#CC1=C(N)Oc2n[nH]c(-c3cccs3)c2C1c1ccsc1 (stereo unspecified)
Ans: inactive

Q: Kindly provide the recorded test outcome for the following compound: CCOC(=O)C1=C(C)N=C2SC(CC)C(=O)N2C1c1cccc(F)c1 (stereo unspecified)
Ans: inactive

Q: Kindly provide the recorded test outcome for the following compound: "Cc1cccc(N2CCN(C(=O)Cc3c(C(=O)O)[nH]c4ccc(Cl)cc34)CC2)c1C"
Ans: active

Q: Kindly provide the recorded test outcome for the following compound: "CCn1c(CN2CCCCCC2=O)nnc1SCc1cnc(-c2ccccc2)s1"
Ans: inactive

Q: Kindly provide the recorded test outcome for the following compound: "Cc1ccc(O)c(Sc2cc(C)ccc2O)c1"
Ans: active

Q: Kindly provide the recorded test outcome for the following compound: "Cc1nc(SCC(=O)Nc2ccc(C)c(F)c2)c2oc3ccccc3c2n1"
Ans: inactive

---

experiment: viability loss of HPDE-C7K cells – cell-based, fluorescence, HTS, primary screen (AID 431); conditions: HPDE-C7K KRASV12 cells, Alamar Blue viability, 48 h; at 10 µM; hits give high values;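 note: 0% = DMSO solvent wells and 100% = doxorubicin-treated wells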
Out of some 63,000 compounds screened, about 1,100 (1.7%) were called active. This is one part of a sample in which actives are shown more often than they occur. Results with a measured potency or affinity are listed apart.
assay.readout: cytotoxicity (%)
Lab book: enter the figure in %, no units written.

Q: Give its cytotoxicity value. Item: "FC(F)Oc1cccc2cccnc12"
Ans: 3.1

Q: Give its cytotoxicity value. Item: CCCSCCCNC(=O)Cn1cc2c(n1)CCC(C)C2 (centres undefined)
Ans: 4.6

Q: Give its cytotoxicity value. Item: "Cc1c(NC(=O)c2ccc(Br)o2)c(=O)n(-c2ccccc2)n1C"
Ans: 12.6

Q: Give its cytotoxicity value. Item: "COc1cc(Br)cc(CN2CCN(C=O)CC2)c1O"
Ans: -2.1

Q: Give its cytotoxicity value. Item: "O=C(COc1cccc2cccnc12)Nc1nccs1"
Ans: 8.2

Q: Give its cytotoxicity value. Item: "OCCSc1nc(-c2cccnc2)nc2ccccc12"
Ans: 2.2

Q: Give its cytotoxicity value. Item: "Cc1noc(C)c1COC(=O)c1ccc2c(c1)OCCO2"
Ans: 4.7

Q: Give its cytotoxicity value. Item: "Cn1c(=O)c2c(SCc3cccnc3)nc(C3CC3)nc2n(C)c1=O"
Ans: -15.9

Q: Give its cytotoxicity value. Item: "CCCCC(=O)Nc1ccc2c(c1)nc1n2CCOC1"
Ans: -4.8

Q: Give its cytotoxicity value. Item: "CCOC(=O)N1CCN(Cc2nc(N)nc(Nc3ccc(Oc4ccccc4)cc3)n2)CC1"
Ans: 28

Q: Give its cytotoxicity value. Item: "Cc1c(NC(=O)Nc2cccc(Cl)c2)c(=O)n(-c2ccccc2)n1C"
Ans: -10.4

Q: Give its cytotoxicity value. Item: "CCN(CCNC(=O)C1CCN(S(C)(=O)=O)CC1)c1ccccc1"
Ans: -4.7

Q: Give its cytotoxicity value. Item: Cc1ccc(S(=O)(=O)Cn2nnnc2C(C(C)C)N2CCN(C(=O)c3ccco3)CC2)cc1 (centres undefined)
Ans: -8.7

Q: Give its cytotoxicity value. Item: CC1CCCN(C(=O)c2ccc3nc[nH]c3c2)C1 (centres undefined)
Ans: -23.2

Q: Give its cytotoxicity value. Item: "Cc1c(NC(=O)c2ccc(=O)oc2)c(=O)n(-c2ccccc2)n1C"
Ans: -10.4

Q: Give its cytotoxicity value. Item: "CCOC(=O)C1=CN(C)C=C(C(=O)OCC)C1c1ccsc1"
Ans: 6.2

Q: Give its cytotoxicity value. Item: "Cc1ccc2nc3sc(C(=O)N4CCOCC4)c(N)c3cc2c1"
Ans: 5.9

Q: Give its cytotoxicity value. Item: "Cc1cc(-c2ccccc2)c(C#N)c(N)n1"
Ans: 12.6

Q: Give its cytotoxicity value. Item: "O=c1c2ccccc2c(/C=N/c2ncn[nH]2)c(O)n1Cc1ccccc1"
Ans: 17.3
